experiment: Single dose oral pharmacokinetic study; assay type: in vivo; conditions: mouse; Mice oral PK @30 mg/kg; plasma
test-readout: AUC(0-t)
Form field: result (number plus unit)

Which value of AUC(0-t) has been reported for CC(C)C1=C2[C@H]3CC[C@@H]4[C@@]5(C)CC[C@H](OC(=O)[C@H]6C[C@@H](C(=O)O)C6(C)C)C(C)(C)[C@@H]5CC[C@@]4(C)[C@]3(C)CC[C@@]2(NC(=O)C(C)(C)NS(=O)(=O)c2ccc(Cl)cc2)CC1=O in the records? 145 µg·h/mL

* * *

test: Single dose oral pharmacokinetic study; assay type: in vivo; conditions: mouse; Mice oral PK @30 mg/kg; plasma
test-readout: Cmax
Form field: result (number plus unit)

Which value of Cmax has been reported for CC(C)C1=C2[C@H]3CC[C@@H]4[C@@]5(C)CC[C@H](OC(=O)[C@H]6C[C@@H](C(=O)O)C6(C)C)C(C)(C)[C@@H]5CC[C@@]4(C)[C@]3(C)CC[C@@]2(NC(=O)C(C)(C)NS(=O)(=O)c2ccc(Cl)cc2)CC1=O in the records? 7380 ng/mL
